Numbers sourced from patent US4906753A.

# EXPERIMENTAL_TARGET: aldose reductase (Bos taurus)
# Construct: preparation of the enzyme from bovine lens; from tissue; host or cells: bovine lens
# PROTOCOL_NOTES: in vitro aldose reductase inhibition (modified Hayman and Kinoshita procedure)
# Type: biochemical, bovine (lens)
# CONDITION_DETAILS: Table 1; 10^-5 M; read-out: % Inhibition IN VITRO 10^-5 M
MEASUREMENT_KIND: inhibition at 10 µM (%)

[[record]]
structure_string = "CSc1nc(C(C)(C)C)nc(OCC(=O)O)c1C#N"
measurement_kind = "inhibition at 10 µM"
recorded_measurement = 89

[[record]]
structure_string = "CCCc1nc(OCC(=O)O)c(C#N)c(SC)n1"
measurement_kind = "inhibition at 10 µM"
recorded_measurement = 92

[[record]]
structure_string = "CC(C)(C)c1nc(OCC(=O)O)c(C#N)c(SCC2CCCCC2)n1"
measurement_kind = "inhibition at 10 µM"
recorded_measurement = 97

[[record]]
structure_string = "CSc1nc(Cc2ccccc2)nc(OCC(=O)O)c1C#N"
measurement_kind = "inhibition at 10 µM"
recorded_measurement = 91

[[record]]
structure_string = "CC(C)(C)c1nc(OCC(=O)O)c(C#N)c(SCc2ccc(Br)cc2)n1"
measurement_kind = "inhibition at 10 µM"
recorded_measurement = 95

[[record]]
structure_string = "CSc1nc(C)nc(OCC(=O)O)c1C#N"
measurement_kind = "inhibition at 10 µM"
recorded_measurement = 90

[[record]]
structure_string = "CC(C)Sc1nc(C(C)(C)C)nc(OCC(=O)O)c1C#N"
measurement_kind = "inhibition at 10 µM"
recorded_measurement = 92

[[record]]
structure_string = "CC(C)(C)c1nc(OCC(=O)O)c(C#N)c(SCc2ccccc2)n1"
measurement_kind = "inhibition at 10 µM"
recorded_measurement = 86

[[record]]
structure_string = "N#Cc1c(OCC(=O)O)nc(C2CCCCC2)nc1SCc1ccccc1"
measurement_kind = "inhibition at 10 µM"
recorded_measurement = 95

[[record]]
structure_string = "CSc1nc(C2CCCCC2)nc(OCC(=O)O)c1C#N"
measurement_kind = "inhibition at 10 µM"
recorded_measurement = 90

[[record]]
structure_string = "CSc1nc(CC(C)(C)C)nc(OCC(=O)O)c1C#N"
measurement_kind = "inhibition at 10 µM"
recorded_measurement = 95

[[record]]
structure_string = "CSc1nc(-c2ccccc2)nc(OCC(=O)O)c1C#N"
measurement_kind = "inhibition at 10 µM"
recorded_measurement = 92

[[record]]
structure_string = "CSc1nc(-c2ccc(Br)cc2)nc(OCC(=O)O)c1C#N"
measurement_kind = "inhibition at 10 µM"
recorded_measurement = 95


----------
# EXPERIMENTAL_TARGET: aldose reductase (Bos taurus)
# Construct: preparation of the enzyme from bovine lens; from tissue; host or cells: bovine lens
# PROTOCOL_NOTES: in vitro aldose reductase inhibition (modified Hayman and Kinoshita procedure)
# Type: biochemical, bovine (lens)
# CONDITION_DETAILS: Table 1; 10^-6 M
MEASUREMENT_KIND: inhibition at 1 µM (%)

[[record]]
structure_string = "CSc1nc(C(C)(C)C)nc(OCC(=O)O)c1C#N"
experimental_target = "aldose reductase (Bos taurus)"
recorded_measurement = 88

[[record]]
structure_string = "CSc1nc(-c2ccccc2)nc(OCC(=O)O)c1C#N"
experimental_target = "aldose reductase (Bos taurus)"
recorded_measurement = 87

[[record]]
structure_string = "CSc1nc(C)nc(OCC(=O)O)c1C#N"
experimental_target = "aldose reductase (Bos taurus)"
recorded_measurement = 84

[[record]]
structure_string = "CSc1nc(-c2cccs2)nc(OCC(=O)O)c1C#N"
experimental_target = "aldose reductase (Bos taurus)"
recorded_measurement = 97

[[record]]
structure_string = "CSc1nc(C2CCCCC2)nc(OCC(=O)O)c1C#N"
experimental_target = "aldose reductase (Bos taurus)"
recorded_measurement = 90

[[record]]
structure_string = "CC(C)(C)c1nc(OCC(=O)O)c(C#N)c(SCC2CCCCC2)n1"
experimental_target = "aldose reductase (Bos taurus)"
recorded_measurement = 96

[[record]]
structure_string = "CSc1nc(Cc2ccccc2)nc(OCC(=O)O)c1C#N"
experimental_target = "aldose reductase (Bos taurus)"
recorded_measurement = 90

[[record]]
structure_string = "CCCc1nc(OCC(=O)O)c(C#N)c(SC)n1"
experimental_target = "aldose reductase (Bos taurus)"
recorded_measurement = 89

[[record]]
structure_string = "CC(C)(C)c1nc(OCC(=O)O)c(C#N)c(SCc2ccc(Br)cc2)n1"
experimental_target = "aldose reductase (Bos taurus)"
recorded_measurement = 95

[[record]]
structure_string = "CC(C)(C)c1nc(OCC(=O)O)c(C#N)c(SCc2ccccc2)n1"
experimental_target = "aldose reductase (Bos taurus)"
recorded_measurement = 85

[[record]]
structure_string = "CC(C)(C)c1nc(OCC(=O)O)c(C#N)c(SCc2ccc(Br)cc2F)n1"
experimental_target = "aldose reductase (Bos taurus)"
recorded_measurement = 93

[[record]]
structure_string = "N#Cc1c(OCC(=O)O)nc(C2CCCCC2)nc1SCc1ccccc1"
experimental_target = "aldose reductase (Bos taurus)"
recorded_measurement = 91

[[record]]
structure_string = "CSc1nc(-c2ccc(Br)cc2)nc(OCC(=O)O)c1C#N"
experimental_target = "aldose reductase (Bos taurus)"
recorded_measurement = 93

[[record]]
structure_string = "CSc1nc(C(C)C)nc(OCC(=O)O)c1C#N"
experimental_target = "aldose reductase (Bos taurus)"
recorded_measurement = 97

[[record]]
structure_string = "CC(C)Sc1nc(C(C)(C)C)nc(OCC(=O)O)c1C#N"
experimental_target = "aldose reductase (Bos taurus)"
recorded_measurement = 91

[[record]]
structure_string = "CSc1nc(CC(C)(C)C)nc(OCC(=O)O)c1C#N"
experimental_target = "aldose reductase (Bos taurus)"
recorded_measurement = 96


----------
# EXPERIMENTAL_TARGET: aldose reductase (Bos taurus)
# Construct: preparation of the enzyme from bovine lens; from tissue; host or cells: bovine lens
# PROTOCOL_NOTES: in vitro aldose reductase inhibition (modified Hayman and Kinoshita procedure)
# Type: biochemical, bovine (lens)
# CONDITION_DETAILS: Table 2; 10^-5 M; read-out: % Inhibition IN VITRO 10^-5 M
MEASUREMENT_KIND: inhibition at 10 µM (%)

[[record]]
compound = "N#Cc1c(OCC(=O)O)nc(-c2cccc3ccccc23)nc1-c1ccccc1 [Example 5 (Table 2)]"
measurement_kind = "inhibition at 10 µM"
recorded_measurement = 79

[[record]]
compound = "CC(C)c1nc(-c2cccc3c(Br)cccc23)nc(OCC(=O)O)c1C#N [Example 6 (Table 2)]"
measurement_kind = "inhibition at 10 µM"
recorded_measurement = 94

[[record]]
compound = "Cc1nc(-c2cccc3ccccc23)nc(OCC(=O)O)c1C#N [Example 3 (Table 2)]"
measurement_kind = "inhibition at 10 µM"
recorded_measurement = 93

[[record]]
compound = "N#Cc1c(Cc2cccc3ccccc23)nc(-c2cccc3c(Br)cccc23)nc1OCC(=O)O [Example 1 (Table 2)]"
measurement_kind = "inhibition at 10 µM"
recorded_measurement = 90

[[record]]
compound = "Cc1nc(-c2ccccc2)nc(OCC(=O)O)c1C#N"
measurement_kind = "inhibition at 10 µM"
recorded_measurement = 92


----------
# EXPERIMENTAL_TARGET: aldose reductase (Bos taurus, UniProt P16116)
# Construct: preparation of the enzyme from bovine lens; from tissue; host or cells: bovine lens
# PROTOCOL_NOTES: in vitro aldose reductase inhibition (modified Hayman and Kinoshita procedure)
# Type: biochemical, bovine (lens)
# CONDITION_DETAILS: Table 1; 10^-7 M
# Excerpt: In the present case the procedure of Hayman and Kinoshita was modified in that the final chromatography step was omitted in the preparation of the enzyme from bovine lens.
MEASUREMENT_KIND: inhibition at 0.1 µM (%)

[[record]]
structure_string = "CSc1nc(-c2ccccc2)nc(OCC(=O)O)c1C#N"
measurement_kind = "inhibition at 0.1 µM"
unit_abbreviation = "%"
recorded_measurement = 75

[[record]]
structure_string = "CC(C)(C)c1nc(OCC(=O)O)c(C#N)c(SCc2ccc(Br)cc2)n1"
measurement_kind = "inhibition at 0.1 µM"
unit_abbreviation = "%"
recorded_measurement = 95

[[record]]
structure_string = "CSc1nc(Cc2ccccc2)nc(OCC(=O)O)c1C#N"
measurement_kind = "inhibition at 0.1 µM"
unit_abbreviation = "%"
recorded_measurement = 78


I = CSc1nc(C)nc(OCC(=O)O)c1C#N
II = CC(C)(C)c1nc(OCC(=O)O)c(C#N)c(SCc2ccccc2)n1
Ask: Looking at I and II , which one comes out lower in inhibition at 0.1 µM terms? Selection: enter the item's label.
Reply: I

----------
# EXPERIMENTAL_TARGET: aldose reductase (Bos taurus, UniProt P16116)
# Construct: preparation of the enzyme from bovine lens; from tissue; host or cells: bovine lens
# PROTOCOL_NOTES: in vitro aldose reductase inhibition (modified Hayman and Kinoshita procedure)
# Type: biochemical, bovine (lens)
# CONDITION_DETAILS: Table 2; 10^-6 M
MEASUREMENT_KIND: inhibition at 1 µM (%)

[[record]]
structure_string = "N#Cc1c(Cc2cccc3ccccc23)nc(-c2cccc3c(Br)cccc23)nc1OCC(=O)O"
experimental_target = "aldose reductase (Bos taurus, UniProt P16116)"
recorded_measurement = 85

[[record]]
structure_string = "N#Cc1c(OCC(=O)O)nc(-c2cccc3ccccc23)nc1-c1ccccc1"
experimental_target = "aldose reductase (Bos taurus, UniProt P16116)"
recorded_measurement = 76

[[record]]
structure_string = "CC(C)c1nc(-c2cccc3c(Br)cccc23)nc(OCC(=O)O)c1C#N"
experimental_target = "aldose reductase (Bos taurus, UniProt P16116)"
recorded_measurement = 90

[[record]]
structure_string = "Cc1nc(-c2ccccc2)nc(OCC(=O)O)c1C#N"
experimental_target = "aldose reductase (Bos taurus, UniProt P16116)"
recorded_measurement = 88

[[record]]
structure_string = "Cc1nc(-c2cccc3ccccc23)nc(OCC(=O)O)c1C#N"
experimental_target = "aldose reductase (Bos taurus, UniProt P16116)"
recorded_measurement = 85

